Test system: Zymoseptoria tritici
TEST_METHOD_NOTES: Test E: wheat leaf blotch, preventive spray on wheat seedlings
SETUP_CONDITIONS: 10 ppm test solution; 100 = 100% disease control, 0 = no control relative to controls
Is Test E disease control rating at least 30%? Then met. If not, not met.

| MOLECULE | ASSIGNED_LABEL |
| --- | --- |
| CCC(C)(C)C(O)(Cn1cncn1)C1=NOC(COc2ccc(C(F)(F)F)cc2)C1 (single isomer, unassigned) [Compound 261] | met |
| CC(C)(C)C(O)(Cn1cncn1)C1=NOC(COc2cccc(Br)c2)C1 (single isomer, unassigned) [Compound 232] | met |
| COc1ccc(OCC2CC(C(O)(Cn3cncn3)C(C)(C)C)=NO2)cc1 (single isomer, unassigned) [Compound 259] | not met |
| CC(C)(C)C(O)(Cn1cncn1)C1=NOC(COc2ccc(Cl)cc2)C1 (single isomer, unassigned) [Compound 242] | not met |
| CC(C)(C)C(O)(Cn1cncn1)C1=NOC(COc2ccc(-c3ccccc3)cc2)C1 (single isomer, unassigned) [Compound 229] | not met |
| CC(C)(C)C(O)(Cn1cncn1)C1=NOC(COc2ccc(Cl)c(Cl)c2)C1 (single isomer, unassigned) [Compound 257] | not met |

----------
System: Erysiphe graminis f sp. tritici
TEST_METHOD_NOTES: Test G: wheat powdery mildew, preventive spray on wheat seedlings
SETUP_CONDITIONS: 10 ppm test solution; 100 = 100% disease control, 0 = no control relative to controls

| COMPOUND | Test G disease control rating [%] |
| --- | --- |
| CC(C)(C)C(O)(Cn1cncn1)C1=NOC(COc2ccc(Cl)c(Cl)c2)C1 (single isomer, unassigned) [Compound 257] | 100 |
| OC(COc1ccc(Cl)cc1)(Cn1cncn1)C1=NOC(c2ccc(Cl)cc2)C1 (centres unmarked) [Compound 273] | 69 |
| OC(Cn1cncn1)(C1=NOC(COc2ccc(Cl)cc2)C1)C1CCCCC1 (single isomer, unassigned) [Compound 266] | 100 |
| CC(C)(C)C(O)(Cn1cncn1)C1=NOC(COc2ccc(-c3ccccc3)cc2)C1 (single isomer, unassigned) [Compound 228] | 99 |
| CC(C)(C)C(O)(Cn1cnnn1)C1=NOC(COc2ccc(Cl)cc2)C1 (centres unmarked) [Compound 246] | 95 |
| OC(COc1ccc(Cl)cc1)(Cn1cncn1)C1=NOC(COc2ccc(Cl)cc2)C1 (centres unmarked) [Compound 271] | 92 |
| CC(C)(C)C(O)(Cn1cncn1)C1=NOC(COCc2ccc(Cl)cc2)C1 (single isomer, unassigned) [Compound 264] | 99 |
| CC(C)(C)C(O)(Cn1cncn1)C1=NOC(COc2ccc(Cl)c(Cl)c2)C1 (single isomer, unassigned) [Compound 258] | 100 |
| CC(C)CC(O)(Cn1cncn1)C1=NOC(COc2ccc(Cl)cc2)C1 (single isomer, unassigned) [Compound 268] | 95 |
| CC1(C(O)(Cn2cncn2)C2=NOC(COc3ccc(Br)cc3)C2)CC1 (single isomer, unassigned) [Compound 239] | 99 |
| CC(C)(C)CC(O)(Cn1cncn1)C1=NOC(COc2ccc(C(F)(F)F)cc2)C1 (single isomer, unassigned) [Compound 241] | 90 |
| CC(C)(C)CC(O)(Cn1cncn1)C1=NOC(Cc2ccc(C(F)(F)F)cc2)C1 (single isomer, unassigned) [Compound 227] | 100 |
| CC(C)(C)C(O)(Cn1cncn1)C1=NOC(COc2cccc(Cl)c2)C1 (single isomer, unassigned) [Compound 231] | 99 |
| CC(C)(C)C(O)(Cn1cncn1)C1=NOC(COc2ccc(Cl)cc2Cl)C1 (single isomer, unassigned) [Compound 255] | 100 |
| CCC(C)(C)C(O)(Cn1cncn1)C1=NOC(COc2ccc(C(F)(F)F)cc2)C1 (single isomer, unassigned) [Compound 262] | 98 |
| Cc1ccc(OCC2CC(C(O)(Cn3cncn3)C(C)(C)C)=NO2)cc1 (single isomer, unassigned) [Compound 235] | 99 |
| CC(C)(C)CC(O)(Cn1cncn1)C1=NOC(COc2ccc(F)cc2)C1 (single isomer, unassigned) [Compound 245] | 98 |
| CC1(C(O)(Cn2cncn2)C2=NOC(COc3ccc(Cl)cc3)C2)CC1 (single isomer, unassigned) [Compound 225] | 99 |
| CC(C)(C)C(O)(Cn1cncn1)C1=NOC(COc2cccc(Br)c2)C1 (single isomer, unassigned) [Compound 233] | 99 |
| CCC(C)(C)C(O)(Cn1cncn1)C1=NOC(COc2ccc(C(F)(F)F)cc2)C1 (single isomer, unassigned) [Compound 261] | 100 |

----------
Test system: Zymoseptoria tritici
TEST_METHOD_NOTES: Test E: wheat leaf blotch, preventive spray on wheat seedlings
SETUP_CONDITIONS: 10 ppm; wheat leaf blotch; 100 = 100% disease control, 0 = no control
RESULT_TYPE: Test E rating (% disease control) (%)

| COMPOUND | MEASURED_ON | RESULT_TYPE | MEASURE_UNIT | EXPERIMENTAL_VALUE |
| --- | --- | --- | --- | --- |
| OC(Cn1cncn1)(C1=NOC(Cn2ccc(-c3ccc(Cl)cc3)n2)C1)c1ccc(Cl)cc1 (single isomer, unassigned) [Compound 65] | Zymoseptoria tritici | Test E rating (% disease control) | % | 0 |
| OC(Cn1cncn1)(C1=NOC(c2ccc(Cl)cc2)C1)c1ccccc1Cl (single isomer, unassigned) [Compound 150] | Zymoseptoria tritici | Test E rating (% disease control) | % | 42 |
| CC(C)(C)CC(O)(Cn1cncn1)C1=NOC(COc2ccc(Cl)cc2)C1 (single isomer, unassigned) [Compound 173] | Zymoseptoria tritici | Test E rating (% disease control) | % | 6 |
| OC(Cn1cncn1)(C1=NOC(COc2ccc(Cl)cc2)C1)c1ccc(Cl)cc1 (single isomer, unassigned) [Compound 61] | Zymoseptoria tritici | Test E rating (% disease control) | % | 99 |
| CC(C)(C)CC(O)(Cn1cncn1)C1=NOC(COc2ccc(Br)cc2)C1 (single isomer, unassigned) [Compound 170] | Zymoseptoria tritici | Test E rating (% disease control) | % | 68 |
| OC(Cn1cncn1)(C1=NOC(c2ccc(-n3ccc(C(F)(F)F)n3)cc2)C1)c1ccc(Cl)cc1 (single isomer, unassigned) [Compound 149] | Zymoseptoria tritici | Test E rating (% disease control) | % | 38 |
| CSc1ccc(C2CC(C(O)(Cn3cncn3)c3ccc(Cl)cc3)=NO2)cc1 (single isomer, unassigned) [Compound 107] | Zymoseptoria tritici | Test E rating (% disease control) | % | 58 |
| OC(Cn1cncn1)(C1=NOC(c2ccc(-n3cc(Br)cn3)cc2)C1)c1ccc(Cl)cc1 (single isomer, unassigned) [Compound 6] | Zymoseptoria tritici | Test E rating (% disease control) | % | 0 |
| CC(C)(C)C(O)(Cn1cncn1)C1=NOC(c2cnccn2)C1 (single isomer, unassigned) [Compound 168] | Zymoseptoria tritici | Test E rating (% disease control) | % | 3 |
| CC(C)(C)CC(O)(Cn1cncn1)C1=NOC(c2ccc(Cl)cc2)C1 (single isomer, unassigned) [Compound 139] | Zymoseptoria tritici | Test E rating (% disease control) | % | 6 |
| OC(Cn1cncn1)(C1=NOC(Cc2ccc(C(F)(F)F)cc2)C1)c1ccc(Cl)cc1 (single isomer, unassigned) [Compound 202] | Zymoseptoria tritici | Test E rating (% disease control) | % | 21 |
| CC(C)(C)C(O)(Cn1cncn1)C1=NOC(CO[Si](C)(C)C(C)(C)C)C1 (single isomer, unassigned) [Compound 10] | Zymoseptoria tritici | Test E rating (% disease control) | % | 0 |
| CC(C)(C)C(O)(Cn1cncn1)C1=NOC(COC2CCCCC2)C1 (single isomer, unassigned) [Compound 92] | Zymoseptoria tritici | Test E rating (% disease control) | % | 3 |
| OC(Cn1cncn1)(C1=NOC(Cc2ccc(Br)cc2)C1)c1ccc(Cl)cc1 (single isomer, unassigned) [Compound 54] | Zymoseptoria tritici | Test E rating (% disease control) | % | 0 |
| OC(Cn1cncn1)(C1=NOC(c2ccc(Cl)cc2)C1)c1cccc(Oc2ccccc2)c1 (single isomer, unassigned) [Compound 109] | Zymoseptoria tritici | Test E rating (% disease control) | % | 66 |
| CC(C)(C)C(O)(Cn1cncn1)C1=NOC(Cc2ccccc2)C1 (single isomer, unassigned) [Compound 86] | Zymoseptoria tritici | Test E rating (% disease control) | % | 1 |
| OC(Cn1cncn1)(C1=NOC(c2ccc(-n3cncn3)cc2)C1)c1ccc(Cl)cc1 (mixture of isomers) | Zymoseptoria tritici | Test E rating (% disease control) | % | 0 |
| CC(C)(C)C(O)(Cn1cncn1)C1=NOC(Cn2cc(Br)cn2)C1 (single isomer, unassigned) [Compound 41] | Zymoseptoria tritici | Test E rating (% disease control) | % | 0 |
| CC(C)(C)C(O)(Cn1cncn1)C1=NOC(COc2ccc(Cl)nc2)C1 (single isomer, unassigned) [Compound 98] | Zymoseptoria tritici | Test E rating (% disease control) | % | 0 |
| OC(Cn1cncn1)(C1=NOC(c2ccc(Cl)cc2)C1)C12CC3CC(CC(C3)C1)C2 (single isomer, unassigned) [Compound 40] | Zymoseptoria tritici | Test E rating (% disease control) | % | 0 |
| OC(Cn1cncn1)(C1=NOC(Cn2ccc(C(F)(F)F)n2)C1)c1ccc(Cl)cc1 (single isomer, unassigned) [Compound 194] | Zymoseptoria tritici | Test E rating (% disease control) | % | 0 |
| OC(Cn1cncn1)(C1=NOC(c2ccc(Cl)cc2)C1)c1ccc(Br)cc1 (single isomer, unassigned) [Compound 181] | Zymoseptoria tritici | Test E rating (% disease control) | % | 0 |
| OC(Cn1cncn1)(C1=NOC(Cc2ccc(Cl)cc2)C1)c1ccc(Cl)cc1 (single isomer, unassigned) [Compound 199] | Zymoseptoria tritici | Test E rating (% disease control) | % | 0 |
| CC(C)(C)C(O)(Cn1cncn1)C1=NOC(COc2ccc(OCc3ccccc3)cc2)C1 (single isomer, unassigned) [Compound 72] | Zymoseptoria tritici | Test E rating (% disease control) | % | 0 |
| CC(C)(C)C(O)(Cn1cncn1)C1=NOC(COc2ccc(Cl)cn2)C1 (single isomer, unassigned) [Compound 95] | Zymoseptoria tritici | Test E rating (% disease control) | % | 0 |
| CC(C)(C)C(O)(Cn1cncn1)C1=NOC(Cn2ccc(C(F)(F)F)n2)C1 (single isomer, unassigned) [Compound 49] | Zymoseptoria tritici | Test E rating (% disease control) | % | 0 |
